Provide the reported koff of each item.
assay-system: T1, recombinant soluble human IL-6 receptor (SR344) (human, UniProt P08887 20-344, biotinylated (sites not given) where immobilized via streptavidin or used in phage ELISA)
T1 construct: also called soluble IL-6 receptor; membrane-type IL-6 receptor (when biotinylated and immobilized on the chip)
T1 sequence (looked up): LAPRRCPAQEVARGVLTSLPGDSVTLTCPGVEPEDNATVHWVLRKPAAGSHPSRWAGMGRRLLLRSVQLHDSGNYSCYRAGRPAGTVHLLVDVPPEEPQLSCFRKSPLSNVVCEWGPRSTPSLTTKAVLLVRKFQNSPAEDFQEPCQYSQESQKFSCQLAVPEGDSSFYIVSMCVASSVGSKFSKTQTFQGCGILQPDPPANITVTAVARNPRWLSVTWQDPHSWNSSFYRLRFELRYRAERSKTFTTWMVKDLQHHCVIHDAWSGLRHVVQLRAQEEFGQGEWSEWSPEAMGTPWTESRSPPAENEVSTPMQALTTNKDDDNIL
assay-explanation: SPR Biacore T100, antibody on protein A/G chip, SR344 analyte, pH 7.4, 37 C
Procedure: Kinetic analyses of antigen-antibody reactions at pH 5.8 and pH 7.4 were carried out using a Biacore™ T100 surface plasmon resonance system (GE Healthcare) on the four antibodies: humanized PM1 antibody (WT) and H3pI/L73, CLH5/L73, and H170/L82 produced in Examples 2 and 4 (buffer: 10 mM MES (pH 7.4 or pH 5.8), 150 mM NaCl, and 0.05% TWEEN® 20 (polyoxyethelene sorbitan monolaurate)). Various antibodies were bound onto a sensor chip immobilized with recomb-protein A/G (Pierce) by amine coupling. […]
Answers without a unit are incomplete; give the number and then its unit.

For every record below, what is its koff?
1. humanized PM1 antibody (wild type, WT) (antibody, human IgG1, kappa, V domains shown, IgG1; also called WT-IgG1; wild type humanized anti-IL-6 receptor antibody) VH: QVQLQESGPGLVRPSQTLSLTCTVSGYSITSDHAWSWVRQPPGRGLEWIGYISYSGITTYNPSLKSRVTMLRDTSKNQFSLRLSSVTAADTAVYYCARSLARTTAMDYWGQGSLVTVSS VL: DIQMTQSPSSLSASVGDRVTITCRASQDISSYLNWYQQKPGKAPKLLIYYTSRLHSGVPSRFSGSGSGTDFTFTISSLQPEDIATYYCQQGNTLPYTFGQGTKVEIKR
2. H170/L82 (antibody, IgG1, V domains shown, expressed and purified as IgG (IgG1); also called H170/L82-IgG1) VH: QVQLQESGPGLVKPSETLSLTCAVSGHSISHHHAHSWVRQPPGEGLEWIGYISYSGITHYNPHLKGRVTISRDTSKNQFSLKLSSVTAADTAAYYCARVLARITAMDHWGEGTLVTVSS VL: DIQMTQSPSSLSASVGDSVTITCQASQDISSHLNWYQQKPGKAPELLIYYGSHLHSGVPSRFSGSGSGTDFTFTISSLEAEDAATYYCGQGNRLPYTFGQGTKVEIE

RESULT:
1: 0.001 s⁻¹; 2: 0.0011 s⁻¹

For every record below, what is its koff?
1. H3pI/L73 (antibody, IgG1, V domains shown, tested as IgG1; also called H3pI/L73-IgG1; H3pl/L73) VH: QVQLQESGPGLVKPSETLSLTCAVSGHSISHDHAHSWVRQPPGEGLEWIGYISYSGITNYNPSLKGRVTISRDTSKNQFSLKLSSVTAADTAAYYCARSLARTTAMDYWGEGTLVTVSS VL: DIQMTQSPSSLSASVGDSVTITCQASQHISSHLNWYQQKPGKAPELLIYYGSHLHSGVPSRFSGSGSGTDFTFTISSLEAEDAATYYCGQGNRLPYTFGQGTKVEIE
2. CLH5/L73 (antibody, IgG1, V domains shown, expressed and purified as IgG) VH: QVQLQESGPGLVKPSETLSLTCAVSGYSISHDHAWSWVRQPPGEGLEWIGHISYSGITNYNPHLKGRVTISRDTSKNQFSLKLSSVTAADTAAYYCARFLARITAHDHWGEGTLVTVSS VL: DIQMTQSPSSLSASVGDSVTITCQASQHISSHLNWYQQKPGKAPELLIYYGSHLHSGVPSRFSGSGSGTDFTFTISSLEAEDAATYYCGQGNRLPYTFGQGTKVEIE

RESULT:
1: 0.00074 s⁻¹; 2: 0.00079 s⁻¹
